Every entry's value here was drawn from ChEMBL document CHEMBL5260834.

# assay: Half life in mouse
# Assay type: ADME, organism-based
# setupConditions: in vivo
valueKind: half-life (h)
Please respond with the number in h and leave the unit unwritten.

State, in one line, measured half-life of CO[C@H](C)CN1CC[C@@]2(C)c3ccc(O)cc3C[C@@H]1C2(C)C 4

---

# testedOn: Kappa-type opioid receptor (Homo sapiens)
# Sequence (P41145 whole entry): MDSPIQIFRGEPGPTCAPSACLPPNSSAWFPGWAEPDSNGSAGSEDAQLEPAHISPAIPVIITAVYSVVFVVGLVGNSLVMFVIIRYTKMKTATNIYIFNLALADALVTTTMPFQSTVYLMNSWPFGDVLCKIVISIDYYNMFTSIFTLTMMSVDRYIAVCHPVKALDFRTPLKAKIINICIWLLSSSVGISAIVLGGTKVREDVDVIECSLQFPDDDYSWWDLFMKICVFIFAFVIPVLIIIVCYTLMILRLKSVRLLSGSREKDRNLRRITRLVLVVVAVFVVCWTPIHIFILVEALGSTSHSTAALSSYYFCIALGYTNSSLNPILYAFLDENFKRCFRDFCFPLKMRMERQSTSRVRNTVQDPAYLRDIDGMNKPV
# assay: Displacement of [3H]-diprenorphine from KOR receptor (unknown origin) assessed as inhibition constant in presence of D-Ala-N-MePhe-Gly-ol-enkephalin and D-Ala-DLeu-enkephalin
valueKind: Ki (µM)
Your answer is read as µM, so omit the unit and give the number.

>  <substanceSmiles>
C[C@@H]1[C@@H]2Cc3ccccc3[C@]1(C)CCN2CCN1CCCC1

>  <readoutNumber>
6.4

$$$$

Give the reported Ki for this compound. C[C@@H]1[C@@H]2Cc3ccccc3[C@]1(C)CCN2CCNc1ccccc1 6.5

---

# testedOn: Glutamate [NMDA] receptor
# assay: Antagonist activity at NMDA receptor (unknown origin) assessed as inhibition constant
valueKind: pKi
Quick note: pKi means taking -log10 of the concentration in moles per liter.

Provide Glutamate [NMDA] receptor pKi reading for CO[C@H](C)CN1CC[C@@]2(C)c3ccc(O)cc3C[C@@H]1C2(C)C . 8.35

---

Below: a set of entries, each annotated with reported Ki.
# testedOn: Sigma non-opioid intracellular receptor 1 (Cavia porcellus, UniProt Q60492)
# Sequence (Q60492 whole entry): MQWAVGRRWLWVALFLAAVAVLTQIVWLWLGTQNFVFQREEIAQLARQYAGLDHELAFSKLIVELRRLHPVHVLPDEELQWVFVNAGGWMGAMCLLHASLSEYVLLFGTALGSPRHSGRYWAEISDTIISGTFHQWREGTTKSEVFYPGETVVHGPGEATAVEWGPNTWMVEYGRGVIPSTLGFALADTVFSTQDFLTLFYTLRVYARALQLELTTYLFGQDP
# assay: Displacement of [3H]-(+)-pentazocine from sigma1 receptor in guinea pig brain membrane assessed as inhibition constant measured for 150 mins
# Type: cell membranes
Numeric only. Scale: nM

Study these solved cases before continuing.
>  <substanceSmiles>
C[C@@H]1[C@@H]2Cc3ccc(N)cc3[C@]1(C)CCN2Cc1ccccc1

>  <valueUnits>
nM

>  <Ki>
1.47

$$$$
>  <substanceSmiles>
CC(C)=CCN1CC[C@@]2(C)c3cc(F)ccc3C[C@H]1[C@H]2C

>  <valueUnits>
nM

>  <Ki>
1.48

$$$$

In one line, give reported Ki of the entry C[C@@H]1[C@@H]2Cc3ccc(N(C)C)cc3[C@]1(C)CCN2Cc1ccccc1 . 1.75

---

# testedOn: Sigma non-opioid intracellular receptor 1 (Homo sapiens, UniProt Q99720)
# Sequence (Q99720 whole entry): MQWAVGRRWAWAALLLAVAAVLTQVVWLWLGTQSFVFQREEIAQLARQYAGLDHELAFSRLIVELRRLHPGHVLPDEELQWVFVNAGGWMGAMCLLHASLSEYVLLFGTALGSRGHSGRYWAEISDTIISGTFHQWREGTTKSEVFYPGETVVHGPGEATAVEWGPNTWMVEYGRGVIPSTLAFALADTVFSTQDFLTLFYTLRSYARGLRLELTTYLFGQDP
# assay: Inhibition of sigma 1 receptor (unknown origin)
Ki by entry:
Write the value in µM as a bare number.

// below: answered compounds
>  <substanceSmiles>
C=CCN1CC[C@]2(C)c3cc(O)ccc3C[C@@H]1[C@@H]2C

>  <testedOn>
Sigma non-opioid intracellular receptor 1 (Homo sapiens, UniProt Q99720)

>  <valueUnits>
µM

>  <readoutNumber>
3.2

$$$$
>  <substanceSmiles>
C=CCCCN1CC[C@]2(C)c3cc(O)ccc3C[C@@H]1[C@@H]2C

>  <testedOn>
Sigma non-opioid intracellular receptor 1 (Homo sapiens, UniProt Q99720)

>  <valueUnits>
µM

>  <readoutNumber>
0.18

$$$$
>  <substanceSmiles>
C=CCCN1CC[C@]2(C)c3cc(O)ccc3C[C@@H]1[C@@H]2C

>  <testedOn>
Sigma non-opioid intracellular receptor 1 (Homo sapiens, UniProt Q99720)

>  <valueUnits>
µM

>  <readoutNumber>
0.62

$$$$

# context switch: different compound, same Ki
Indicate its recorded Ki; the compound in question is C=CCCCCN1CC[C@]2(C)c3cc(O)ccc3C[C@@H]1[C@@H]2C 0.08

---

# testedOn: Sigma non-opioid intracellular receptor 1 (Homo sapiens)
# assay: Displacement of [3H]-(+)-pentazocine from sigma1 receptor (unknown origin) assessed as inhibition constant
Below is a list of entries, each paired with its recorded Ki value.
Record the value in nM, omitting the unit from your answer.

>  <compound>
COC(=O)[C@]1(c2ccccc2)C[C@@H]1CN1CC[C@@]2(C)c3cc(O)ccc3C[C@H]1[C@H]2C

>  <valueKind>
Ki

>  <readoutNumber>
66.7

$$$$

Using known records, supply Ki for C[C@@H]1[C@@H]2Cc3ccccc3[C@]1(C)CCN2CCN1CCCCC1 20

Item C=CCN1CC[C@@]2(C)c3cc(O)ccc3C[C@H]1[C@H]2C : provide Ki 169

Answer with the recorded Ki for the compound listed here: C[C@@H]1[C@@H]2Cc3ccccc3[C@]1(C)CCN2CCNc1ccccc1 21

Give recorded Ki. C[C@@H]1[C@@H]2Cc3ccccc3[C@]1(C)CCN2CCN(C)c1ccccc1 91

---

# testedOn: Sigma non-opioid intracellular receptor 1 (Cavia porcellus)
# assay: Displacement of [3H]-(+)-pentazocine from sigma1 receptor in guinea pig brain membrane assessed as inhibition constant measured for 150 mins in presence of haloperidol
# Format: cell membranes
Kindly apply the following: satisfied if Ki is less than 7 nM, not satisfied in every other case.

Answered examples (6):
>  <substanceSmiles>
C[C@@H]1[C@@H]2Cc3ccc(O)cc3[C@]1(C)CCN2CCN1CCOCC1

>  <testedOn>
Sigma non-opioid intracellular receptor 1 (Cavia porcellus)

>  <answerLabel>
not satisfied

$$$$
>  <substanceSmiles>
C[C@@H]1[C@@H]2Cc3ccc(O)cc3[C@]1(C)CCN2CCNc1ccccc1

>  <testedOn>
Sigma non-opioid intracellular receptor 1 (Cavia porcellus)

>  <answerLabel>
satisfied

$$$$
>  <substanceSmiles>
C[C@@H]1[C@@H]2Cc3ccc(O)cc3[C@]1(C)CCN2CCN1CCCCC1

>  <testedOn>
Sigma non-opioid intracellular receptor 1 (Cavia porcellus)

>  <answerLabel>
not satisfied

$$$$
>  <substanceSmiles>
CC[C@@H]1[C@@H]2CCN(Cc3ccccc3)[C@@H]1Cc1ccccc12

>  <testedOn>
Sigma non-opioid intracellular receptor 1 (Cavia porcellus)

>  <answerLabel>
satisfied

$$$$
>  <substanceSmiles>
CC(C)[C@@H]1[C@@H]2CCN(Cc3ccccc3)[C@@H]1Cc1ccccc12

>  <testedOn>
Sigma non-opioid intracellular receptor 1 (Cavia porcellus)

>  <answerLabel>
not satisfied

$$$$
>  <substanceSmiles>
C[C@@H]1[C@@H]2Cc3ccc(O)cc3[C@]1(C)CCN2CCN1CCCCCC1

>  <testedOn>
Sigma non-opioid intracellular receptor 1 (Cavia porcellus)

>  <answerLabel>
not satisfied

$$$$

Hello, I'm reviewing records and need to know if Ki of C[C@@H]1[C@@H]2CCN(Cc3ccccc3)[C@@H]1Cc1ccccc12 is below 7 nM. Could you check? satisfied

Does the reported Ki of C[C@@H]1[C@@H]2Cc3ccc(O)cc3[C@]1(C)CCN2CCN(C)c1ccccc1 stay below 7 nM? satisfied

Given the entry C[C@@H]1[C@@H]2Cc3ccc(O)cc3[C@]1(C)CCN2CCN1CCCC1 , would its reported Ki be below 7 nM? not satisfied

---

# testedOn: Mu-type opioid receptor (Homo sapiens, UniProt P35372)
# Sequence (P35372 whole entry): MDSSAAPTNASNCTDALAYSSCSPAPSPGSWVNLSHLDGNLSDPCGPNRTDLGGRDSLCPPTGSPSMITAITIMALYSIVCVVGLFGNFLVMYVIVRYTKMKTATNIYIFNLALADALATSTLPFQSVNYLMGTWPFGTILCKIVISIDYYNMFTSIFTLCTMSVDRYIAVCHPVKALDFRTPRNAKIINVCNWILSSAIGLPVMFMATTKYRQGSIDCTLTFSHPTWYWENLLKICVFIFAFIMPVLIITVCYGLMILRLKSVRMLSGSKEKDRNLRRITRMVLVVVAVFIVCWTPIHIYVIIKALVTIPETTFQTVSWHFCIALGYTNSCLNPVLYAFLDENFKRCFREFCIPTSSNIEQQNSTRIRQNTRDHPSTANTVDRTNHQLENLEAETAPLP
# assay: Displacement of [3H]-Diprenorphine from MOR receptor (unknown origin) assessed as inhibition constant
pKi: −log10 of the molar value.
valueKind: pKi

The following molecules have reported results that may help.
>  <molecule>
COC(=O)[C@]1(c2ccccc2)C[C@@H]1CN1CC[C@]2(C)c3cc(O)ccc3C[C@@H]1[C@@H]2C

>  <result>
< 4.60

$$$$
>  <molecule>
COC(=O)[C@]1(c2ccccc2)C[C@@H]1CN1CC[C@@]2(C)c3cc(O)ccc3C[C@H]1[C@H]2C

>  <result>
< 4.60

$$$$
>  <molecule>
COC(=O)[C@@]1(c2ccccc2)C[C@H]1CN1CC[C@@]2(C)c3cc(O)ccc3C[C@H]1[C@H]2C

>  <result>
< 6.00

$$$$
>  <molecule>
C=CCN1CC[C@@]2(C)c3cc(O)ccc3C[C@H]1[C@H]2C

>  <result>
< 6.00

$$$$

State its pKi: COC(=O)[C@]1(c2ccc(Cl)cc2)C[C@@H]1CN1CC[C@]2(C)c3cc(O)ccc3C[C@@H]1[C@@H]2C < 4.60

Name the recorded pKi of the molecule listed here: COC(=O)C1(c2ccccc2)CC1CN1CC[C@@]2(C)c3cc(O)ccc3C[C@H]1[C@H]2C (mixture of isomers) < 6.00

---

# testedOn: Sigma non-opioid intracellular receptor 1 (Cavia porcellus)
# assay: Displacement of [3H]-(+)-pentazocine from sigma1 receptor in guinea pig brain membrane assessed as inhibition constant measured after 120 mins by scintillation counting method
# Type: cell membranes
valueKind: pKi
Reminder that pKi means the negative base-10 logarithm of the concentration expressed in mol/L.

State its pKi: C[C@@H]1[C@@H]2Cc3ccc(O)cc3[C@]1(C)CCN2Cc1ccccc1F 9.01

Identify pKi associated with the molecule C[C@@H]1[C@@H]2Cc3ccc(O)cc3[C@]1(C)CCN2Cc1ccccc1 9.17

Specify reported pKi for the molecule shown: C[C@@H]1[C@@H]2Cc3ccc(O)cc3[C@]1(C)CCN2Cc1ccc(F)cc1 8.84

---

# testedOn: Sigma intracellular receptor 2 (Homo sapiens, UniProt Q5BJF2)
# Sequence (Q5BJF2 whole entry): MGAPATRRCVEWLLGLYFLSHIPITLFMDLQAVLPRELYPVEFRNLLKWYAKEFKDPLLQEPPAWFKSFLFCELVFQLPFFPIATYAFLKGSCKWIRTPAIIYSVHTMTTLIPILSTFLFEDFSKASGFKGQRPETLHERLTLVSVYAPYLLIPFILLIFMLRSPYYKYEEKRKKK
# assay: Displacement of [3H]DTG from sigma 2 receptor (unknown origin) assessed as inhibition constant in presence of (+)-SKF10047 by radioligand binding assay
valueKind: Ki (nM)
// note: answer is a bare numeric in nM

Here is how some compounds turned out for Ki.
>  <substanceSmiles>
C[C@@H]1[C@@H]2Cc3ccccc3[C@]1(C)CCN2CCN(C)c1ccccc1

>  <valueKind>
Ki

>  <readoutNumber>
157

$$$$
>  <substanceSmiles>
C[C@@H]1[C@@H]2Cc3ccccc3[C@]1(C)CCN2CCNc1ccccc1

>  <valueKind>
Ki

>  <readoutNumber>
144

$$$$
>  <substanceSmiles>
C[C@@H]1[C@@H]2Cc3ccccc3[C@]1(C)CCN2CCN1CCCCC1

>  <valueKind>
Ki

>  <readoutNumber>
130

$$$$

State its Ki: C[C@@H]1[C@@H]2Cc3ccccc3[C@]1(C)CCN2CCN1CCCC1 42
